System: GABA receptor-chloride ionophore complex (GR complex)
assay_method_text: [35S]TBPS binding modulation assay
study_conditions: saturating concentrations of test compound
Max. Inhib., maximal % of specifically bound [35S]-TBPS displaced listing for selected compounds.
readout: Max. Inhib., maximal % of specifically bound [35S]-TBPS displaced (%)

compound	measurement
CC(=O)[C@H]1CC[C@H]2[C@@H]3CC[C@H]4C[C@@H](O)CC[C@]4(C)[C@H]3CC[C@]12C [Example 3β-OH-DHP, 3β-hydroxy-5α-pregnan-20-one, reference compound]	33
CC(=O)[C@H]1CC[C@H]2[C@@H]3CCC4=CC(=O)CC[C@]4(C)[C@H]3CC[C@]12C [PROGESTERONE, reference compound]	100
CO[C@H]1C[C@@]2(C)[C@@H](CC[C@@H]3[C@@H]2CC[C@]2(C)[C@@H](C(C)=O)CC[C@@H]32)C[C@@H]1O [2β-METHOXY-3α-HYDROXY-5α-PREGNAN-20-ONE, 2β-Methoxy-3α-hydroxy-5α-pregnan-20-one]	100
C[C@]12CC[C@@H](O)C[C@H]1CC[C@@H]1[C@@H]2CC[C@]2(C)[C@@H](C(=O)CO)CC[C@@H]12	100
C[C@]12CC[C@@H](O)C[C@@H]1CC[C@@H]1[C@@H]2CC[C@]2(C)[C@@H](C(=O)O)CC[C@@H]12 [3α-HYDROXY-5α-ANDROSTAN-17β-CARBOXYLATE]	63
C[C@]12CCC(=O)C[C@@H]1CC[C@@H]1[C@@H]2CC[C@]2(C)[C@@H](O)CC[C@@H]12 [5α-ANDROSTAN-17β-OL-3-ONE, 5α-ANDROSTAN-17β-OL-3- ONE, reference compound]	52
CC(=O)[C@H]1CC[C@H]2[C@@H]3CC=C4C[C@@H](O)CC[C@]4(C)[C@H]3CC[C@]12C [5-PREGNEN-3β-OL-20-ONE (PREGNENOLONE), 5-PREGNEN-3β-OL-20-ONE, reference compound]	30
C[C@]12C[C@H](O)[C@H]3[C@@H](CCC4=CC(=O)CC[C@@]43C)[C@@H]1CC[C@@H]2C(=O)CO [4-PREGNEN-11b,21-DIOL- 3,20-DIONE, reference compound]	21
C[C@]12CC[C@@H](O)C[C@@H]1CC[C@@H]1[C@@H]2CC[C@]2(C)[C@@H](O)CC[C@@H]12	100
CO[C@@H]1C[C@H]2[C@@H]3CC[C@H]4C[C@H](O)CC[C@]4(C)[C@H]3CC[C@]2(C)[C@H]1C(C)=O [3α-HYDROXY-5α-PREGNAN-16α-METHOXY-20-ONE]	73
